// provenance: ChEMBL document CHEMBL1126264

# System: Streptococcus pyogenes
# protocol_text: Compound was tested for antimicrobial activity against […] pyogenes 308 A
# Assay type: functional
Items are presented alongside their recorded MIC.
Give just the numeric value; µg/mL need not be written.

Sample answers from the record:
compound	system_name	display_unit	observed_measurement
CO[C@@H]1C[C@@H](C[C@H]2CC[C@H](C)[C@H]([C@@H](C)CO)O2)OC2(O[C@](C)([C@H]3CC[C@@](C)([C@@H]4O[C@@H]([C@@H](O)[C@@H](C)C[C@@H](C)CO)C[C@@H]4C)O3)C[C@H]2C)[C@@H]1C (some centres not stated)	Streptococcus pyogenes	µg/mL	1.56
CO[C@@H]1C[C@@H](C[C@H]2CC[C@H](C)[C@H]([C@@H](C)CCl)O2)OC2(O[C@](C)([C@H]3CC[C@@](C)([C@@H]4O[C@@H]([C@H]5O[C@@](O)(CCl)[C@H](C)C[C@@H]5C)C[C@@H]4C)O3)C[C@H]2C)[C@@H]1C (some centres not stated)	Streptococcus pyogenes	µg/mL	0.098
CO[C@@H]1C[C@@H](C[C@H]2CC[C@H](C)[C@H]([C@@H](C)C(=O)O)O2)OC2(O[C@](C)([C@H]3CC[C@@](C)([C@@H]4O[C@@H]([C@H]5OC(=O)[C@H](C)C[C@@H]5C)C[C@@H]4C)O3)C[C@H]2C)[C@@H]1C (some centres not stated)	Streptococcus pyogenes	µg/mL	25
CO[C@@H]1C[C@@H](C[C@H]2CC[C@H](C)[C@H]([C@@H](C)CO)O2)OC2(O[C@](C)([C@H]3CC[C@@](C)([C@@H]4O[C@@H]([C@H]5O[C@@](O)(COC(=O)C(C)C)[C@H](C)C[C@@H]5C)C[C@@H]4C)O3)C[C@H]2C)[C@@H]1C (some centres not stated)	Streptococcus pyogenes	µg/mL	3.13

Req: Data request, read-out MIC, for CO[C@@H]1C[C@@H](C[C@H]2CC[C@H](C)[C@H]([C@@H](C)C(=O)O)O2)OC2(O[C@](C)([C@H]3CC[C@@](C)([C@@H]4O[C@@H]([C@H]5O[C@](CO)(OC)[C@H](C)C[C@@H]5C)C[C@@H]4C)O3)C[C@H]2C)[C@@H]1C (some centres not stated)
Resp: 0.39

Req: Data request, read-out MIC, for CO[C@@H]1C[C@@H](C[C@H]2CC[C@H](C)[C@H]([C@@H](C)C(=O)O)O2)OC2(O[C@](C)([C@H]3CC[C@@](C)([C@@H]4O[C@@H]([C@H]5O[C@](COC(=O)C(C)C)(OC)[C@H](C)C[C@@H]5C)C[C@@H]4C)O3)C[C@H]2C)[C@@H]1C (some centres not stated)
Resp: 25

----------
Items are presented alongside their recorded MIC.
# Tested on: Streptococcus pyogenes
# protocol_text: Compound was tested for antimicrobial activity against […] pyogenes 308 A
# Type: functional
Give just the numeric value; µg/mL need not be written.

molecule	MIC (µg/mL)
CO[C@@H]1C[C@@H](C[C@H]2CC[C@H](C)[C@H]([C@@H](C)C(=O)O)O2)OC2(O[C@](C)([C@H]3CC[C@@](C)([C@@H]4O[C@@H]([C@H]5O[C@@](O)(CO)[C@H](C)C[C@@H]5C)C[C@@H]4C)O3)C[C@H]2C)[C@@H]1C (stereo partly drawn)	0.025

Now let's try a different one.
Req: Data request, read-out MIC, for CO[C@@H]1C[C@@H](C[C@H]2CC[C@H](C)[C@H]([C@@H](C)C(=O)O)O2)OC2(O[C@](C)([C@H]3CC[C@@](C)([C@@H]4O[C@@H]([C@H]5O[C@@](O)(COC(=O)C(C)C)[C@H](C)C[C@@H]5C)C[C@@H]4C)O3)C[C@H]2C)[C@@H]1C (stereo partly drawn)
Resp: 0.049
